EC50 for assorted compounds
- assay system: adenosine A1 receptor (Homo sapiens, UniProt P30542)
- Construct: expressed in transfected cells; host or cells: CHO (Chinese Hamster Ovary)
- Sequence (P30542 whole entry): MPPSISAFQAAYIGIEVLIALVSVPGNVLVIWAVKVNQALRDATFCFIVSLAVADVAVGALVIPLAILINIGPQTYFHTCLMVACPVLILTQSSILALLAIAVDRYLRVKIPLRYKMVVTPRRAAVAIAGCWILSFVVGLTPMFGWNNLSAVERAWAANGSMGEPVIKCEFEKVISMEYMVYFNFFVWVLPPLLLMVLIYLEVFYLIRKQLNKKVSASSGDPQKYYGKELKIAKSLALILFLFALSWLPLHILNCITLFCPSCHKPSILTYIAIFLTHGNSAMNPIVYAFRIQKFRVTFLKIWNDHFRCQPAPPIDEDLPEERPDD
- test details: Indirect determination of adenosine agonism by way of gene expression (luciferase, CHO cells), A1
- Format: cell-based
- particulars: CHO cells stably transfected with A1 receptor cDNA; 1 μM forskolin; 50% inhibition of luciferase answer
Express your answer in nM, writing the number without its unit.

Reference set (3 entries):
Give EC50 only, for COC(=O)c1ccc(-c2nc(CSc3nc(N)c(C#N)c(-c4ccc(OC[C@@H](O)CO)cc4)c3C#N)c(C)o2)cc1 , using adenosine A1 receptor (Homo sapiens, UniProt P30542) data.
0.2

Give EC50 only, for Cc1oc(-c2ccc(C(=O)O)cc2)nc1CSc1nc(N)c(C#N)c(-c2ccc(OCC(C)(C)O)cc2)c1C#N , using adenosine A1 receptor (Homo sapiens, UniProt P30542) data.
0.5

Give EC50 only, for N#Cc1c(N)nc(OCc2coc(-c3ccc(F)c(F)c3)n2)c(C#N)c1-c1ccc(OCCO)cc1 , using adenosine A1 receptor (Homo sapiens, UniProt P30542) data.
0.2

Others:
Give EC50 only, for N#Cc1c(N)nc(SCc2ncoc2-c2ccc(Cl)cc2)c(C#N)c1-c1ccc(OC[C@@H](O)CO)cc1 , using adenosine A1 receptor (Homo sapiens, UniProt P30542) data.
8.9

----------
- assay system: adenosine A2b receptor (Homo sapiens, UniProt P29275)
- Sequence (P29275 whole entry): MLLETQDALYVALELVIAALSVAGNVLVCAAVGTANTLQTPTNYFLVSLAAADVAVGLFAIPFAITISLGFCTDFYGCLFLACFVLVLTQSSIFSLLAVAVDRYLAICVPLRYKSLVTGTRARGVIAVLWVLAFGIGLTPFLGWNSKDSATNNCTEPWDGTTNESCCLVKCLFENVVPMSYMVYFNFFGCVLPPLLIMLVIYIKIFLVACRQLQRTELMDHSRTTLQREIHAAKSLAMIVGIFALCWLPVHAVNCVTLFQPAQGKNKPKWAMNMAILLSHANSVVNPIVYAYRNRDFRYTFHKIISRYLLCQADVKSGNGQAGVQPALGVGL
- test details: Indirect determination of adenosine agonism by way of gene expression (luciferase, CHO cells), A2b
- particulars: CHO cells stably transfected with A2b receptor cDNA; 50% of maximum luciferase stimulation
- Source text: B-1. Indirect Determination of the Adenosine Agonism by Way of Gene Expression Cells of the CHO (Chinese Hamster Ovary) permanent cell line are transfected stably with the cDNA for the adenosine receptor subtypes A1, A2a and A2b. The adenosine A1 receptors are coupled to the adenylate cyclase by way of Gi proteins, while the adenosine A2a and A2b receptors are coupled by way of Gs proteins. In correspondence with this, the formation of cAMP in the cell is inhibited or stimulated, respectively. […]
measure: pEC50
Keep in mind that pEC50 stands for -log10 of concentration in molar terms.

Indicate its recorded pEC50; the compound in question is Cc1oc(-c2ccc(F)cc2)nc1CSc1nc(N)c(C#N)c(-c2ccc(OC[C@@H](O)CO)cc2)c1C#N
6.93

Indicate its recorded pEC50; the compound in question is N#Cc1c(SCc2coc(-c3ccc(Cl)cc3)n2)nc(N2CC(O)C2)c(C#N)c1-c1ccc(OCCO)cc1
6.63

Indicate its recorded pEC50; the compound in question is N#Cc1c(NCCO)nc(SCc2coc(-c3ccc(Cl)cc3)n2)c(C#N)c1-c1ccc(OCCO)cc1
5.96

Indicate its recorded pEC50; the compound in question is Cc1oc(-c2ccc(Cl)cc2)nc1CSc1nc(N)c(C#N)c(-c2ccc(OC[C@@H](O)CO)cc2)c1C#N
6.63

Indicate its recorded pEC50; the compound in question is Cc1oc(-c2ccccc2F)nc1CSc1nc(N)c(C#N)c(-c2ccc(OC[C@@H](O)CO)cc2)c1C#N
6.66

Others:
Indicate its recorded pEC50; the compound in question is N#Cc1c(N)nc(SCc2coc(-c3ccc(Cl)cc3)n2)c(C#N)c1-c1ccc(OC[C@H](O)CO)cc1
7.00

Indicate its recorded pEC50; the compound in question is COC(=O)c1ccc(-c2nc(CSc3nc(N)c(C#N)c(-c4ccc(OC[C@@H](O)CO)cc4)c3C#N)c(C)o2)cc1
7.36

----------
pEC50 for assorted compounds
- assay system: adenosine A2b receptor (Homo sapiens)
- test details: Indirect determination of adenosine agonism by way of gene expression (luciferase, CHO cells), A2b
- particulars: CHO cells stably transfected with A2b receptor cDNA; 50% of maximum luciferase stimulation
Keep in mind that pEC50 stands for -log10 of concentration in molar terms.

Reference set (6 entries):
Indicate its recorded pEC50; the compound in question is N#Cc1c(NCCO)nc(SCc2coc(-c3ccc(Cl)cc3)n2)c(C#N)c1-c1ccc(OCCO)c(F)c1
5.65

Indicate its recorded pEC50; the compound in question is N#Cc1c(N)nc(OCc2coc(-c3ccc(Cl)cc3)n2)c(C#N)c1-c1ccc(OCCO)cc1
7.02

Indicate its recorded pEC50; the compound in question is N#Cc1c(N)nc(SCc2coc(-c3ccc(F)c(Cl)c3)n2)c(C#N)c1-c1ccc(OCCO)cc1
6.04

Indicate its recorded pEC50; the compound in question is N#Cc1c(SCc2coc(-c3ccc(Cl)cc3)n2)nc(N2CC[C@@H](O)C2)c(C#N)c1-c1ccc(OCCO)cc1
6.55

Indicate its recorded pEC50; the compound in question is Cc1cc(-c2nc(CSc3nc(N)c(C#N)c(-c4ccc(OCCO)cc4)c3C#N)co2)ccc1F
6.50

Indicate its recorded pEC50; the compound in question is N#Cc1c(SCc2coc(-c3ccc(Cl)cc3)n2)nc(N2CCC2)c(C#N)c1-c1ccc(OCCO)cc1
7.11

Others:
Indicate its recorded pEC50; the compound in question is N#Cc1c(SCc2coc(-c3ccc(Cl)cc3)n2)nc(N2CCCC2)c(C#N)c1-c1ccc(OCCO)cc1
6.16

----------
- assay system: adenosine A1 receptor (Homo sapiens, UniProt P30542)
- Construct: expressed in transfected cells; host or cells: CHO (Chinese Hamster Ovary)
- test details: Indirect determination of adenosine agonism by way of gene expression (luciferase, CHO cells), A1
- Assay type: cell-based
- particulars: CHO cells stably transfected with A1 receptor cDNA; 1 μM forskolin; 50% inhibition of luciferase answer
Checkbox rule: EC50 lower than 0.6 nM = Y; EC50 not lower than 0.6 nM = N.

// known answers, use as guide
Is EC50 strictly under 0.6 nM for the entry Cc1cc(-c2nc(CSc3nc(N)c(C#N)c(-c4ccc(OCCO)cc4)c3C#N)co2)ccc1F [Example 31] ?
N

Is EC50 strictly under 0.6 nM for the entry Cc1oc(-c2ccc(Cl)cc2)nc1CSc1nc(N)c(C#N)c(-c2ccc(OC[C@@H](O)CO)cc2)c1C#N [Example 60] ?
Y

Others:
Is EC50 strictly under 0.6 nM for the entry N#Cc1c(N)nc(SCc2coc(-c3ccc(Cl)cc3)n2)c(C#N)c1-c1ccc(OC[C@@H](O)CO)cc1 [Example 48] ?
Y

Is EC50 strictly under 0.6 nM for the entry N#Cc1c(N)nc(SCc2coc(-c3ccc(F)c(F)c3)n2)c(C#N)c1-c1ccc(OCCO)cc1 [Example 11] ?
Y

Is EC50 strictly under 0.6 nM for the entry N#Cc1c(NCCO)nc(SCc2coc(-c3ccc(Cl)cc3)n2)c(C#N)c1-c1ccc(OCCO)c(F)c1 [Example 122] ?
N

Is EC50 strictly under 0.6 nM for the entry Cc1cc(-c2nc(CSc3nc(N)c(C#N)c(-c4ccc(OC[C@H](O)CO)cc4)c3C#N)co2)ccc1Cl [Example 80] ?
N

Is EC50 strictly under 0.6 nM for the entry N#Cc1c(SCc2coc(-c3ccc(Cl)cc3)n2)nc(N2CC(O)C2)c(C#N)c1-c1ccc(OCCO)cc1 [Example 128] ?
Y

Is EC50 strictly under 0.6 nM for the entry N#Cc1c(NC[C@@H](O)CO)nc(SCc2coc(-c3ccc(Cl)cc3)n2)c(C#N)c1-c1ccc(OCCO)cc1 [Example 119] ?
Y

----------
- assay system: adenosine A2a receptor (Homo sapiens, UniProt P29274)
- Sequence (P29274 whole entry): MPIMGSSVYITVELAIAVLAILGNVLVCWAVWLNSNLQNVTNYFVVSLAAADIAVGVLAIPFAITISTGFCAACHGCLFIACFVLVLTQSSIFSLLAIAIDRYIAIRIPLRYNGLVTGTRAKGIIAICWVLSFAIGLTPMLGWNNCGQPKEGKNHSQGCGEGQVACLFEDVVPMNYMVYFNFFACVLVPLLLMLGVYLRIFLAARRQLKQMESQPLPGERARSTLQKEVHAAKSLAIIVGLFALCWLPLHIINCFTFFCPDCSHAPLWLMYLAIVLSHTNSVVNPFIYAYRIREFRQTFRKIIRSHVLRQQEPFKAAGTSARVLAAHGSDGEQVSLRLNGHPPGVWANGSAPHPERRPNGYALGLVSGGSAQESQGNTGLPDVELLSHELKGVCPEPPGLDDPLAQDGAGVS
- test details: Indirect determination of adenosine agonism by way of gene expression (luciferase, CHO cells), A2a
- particulars: CHO cells stably transfected with A2a receptor cDNA; 50% of maximum luciferase stimulation
- From the text: B-1. Indirect Determination of the Adenosine Agonism by Way of Gene Expression Cells of the CHO (Chinese Hamster Ovary) permanent cell line are transfected stably with the cDNA for the adenosine receptor subtypes A1, A2a and A2b. The adenosine A1 receptors are coupled to the adenylate cyclase by way of Gi proteins, while the adenosine A2a and A2b receptors are coupled by way of Gs proteins. In correspondence with this, the formation of cAMP in the cell is inhibited or stimulated, respectively. […]
measure: pEC50
Keep in mind that pEC50 stands for -log10 of concentration in molar terms.

Reference set (3 entries):
Give pEC50 only, for COC(=O)c1ccc(-c2nc(CSc3nc(N)c(C#N)c(-c4ccc(OC[C@@H](O)CO)cc4)c3C#N)c(C)o2)cc1 , using adenosine A2a receptor (Homo sapiens, UniProt P29274) data.
6.28

Give pEC50 only, for N#Cc1c(SCc2coc(-c3ccc(Cl)cc3)n2)nc(N2CC[C@@H](O)C2)c(C#N)c1-c1ccc(OCCO)cc1 , using adenosine A2a receptor (Homo sapiens, UniProt P29274) data.
6.01

Give pEC50 only, for C[C@H](O)COc1ccc(-c2c(C#N)c(N)nc(SCc3coc(-c4ccc(Cl)cc4)n3)c2C#N)cc1 , using adenosine A2a receptor (Homo sapiens, UniProt P29274) data.
6.50

Continue with the compound presented below.
Give pEC50 only, for N#Cc1c(NC[C@@H](O)CO)nc(SCc2coc(-c3ccc(Cl)cc3)n2)c(C#N)c1-c1ccc(OCCO)cc1 , using adenosine A2a receptor (Homo sapiens, UniProt P29274) data.
5.71
